# procedure-text: Half life in Beagle dog at 1 mg/kg, iv measured upto 8 hrs by LC-MS/MS analysis
# Format: ADME, organism-based, Canis lupus familiaris
# assay-setup: in vivo
experimental-endpoint: half-life (min)
// return numeric value only (unit: min, not printed)

So what does the record say about half-life for C[C@H](c1c(Cl)ccc(C2CC2)c1Cl)n1cnc2cnc(-c3ccccc3[C@@H](C)C(=O)O)cc21 ? 36

###

# procedure-text: Tmax in Sprague-Dawley rat at 3 mg/kg, po measured upto 16 hrs by LC-MS/MS analysis
# Format: ADME, organism-based
# assay-setup: in vivo
experimental-endpoint: Tmax
Entry format: amount then unit.

So what does the record say about Tmax for C[C@H](c1c(Cl)ccc(C2CC2)c1Cl)n1cnc2cnc(-c3ccccc3[C@@H](C)C(=O)O)cc21 ? 1.8 h
